Reference for the values: patent US7323480B2

# system: mouse PPAR α (Mus musculus)
# Sequence (P23204 239-466 limits assumed): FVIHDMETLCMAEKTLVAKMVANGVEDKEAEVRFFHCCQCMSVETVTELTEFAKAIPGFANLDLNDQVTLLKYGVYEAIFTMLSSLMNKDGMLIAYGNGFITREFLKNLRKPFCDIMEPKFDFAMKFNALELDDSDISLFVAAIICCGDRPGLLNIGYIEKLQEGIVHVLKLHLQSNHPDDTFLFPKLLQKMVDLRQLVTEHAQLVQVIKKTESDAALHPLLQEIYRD
# procedure-text: PPAR α transactivation (GAL4 chimera luciferase gene activation) assay
# reported-conditions: GAL4 DNA binding domain-PPAR α ligand binding domain chimera, pFR-Luc reporter, HEK293T cells, 20 hours incubation; read-out: Gene Activation Assay: EC50 PPAR alpha
Measured EC50 of individual entries
property-name: EC50

INSERT INTO assay_data (molecule, system, assay_result) VALUES
  ('Cc1cc(SCc2nn(-c3ccc(C(F)(F)F)cc3)nc2C)ccc1OC(C)C(=O)O (stereo not shown) [Compound 110]', 'mouse PPAR α (Mus musculus)', '≤ 10 µM'),
  ('Cc1cc(SCc2nn(-c3ccc(C(F)(F)F)cc3)nc2-c2ccccc2)ccc1OCC(=O)O [Compound 340]', 'mouse PPAR α (Mus musculus)', '≤ 10 µM'),
  ('COc1ccc(-n2nc(C)c(CSc3ccc(OCC(=O)O)c(C)c3)n2)cc1 [Compound 440]', 'mouse PPAR α (Mus musculus)', '> 10 µM'),
  ('Cc1cc(SCc2nn(-c3ccc(C(F)(F)F)cc3)nc2C(F)(F)F)ccc1OCC(=O)O [Compound 360]', 'mouse PPAR α (Mus musculus)', '> 10 µM');

====

Measured pEC50 of individual entries
# system: mouse PPARγ (Mus musculus, UniProt P37238)
# Construct: expressed in transfected cells; host or cells: HEK293T
# Sequence (P37238 238-503 limits assumed): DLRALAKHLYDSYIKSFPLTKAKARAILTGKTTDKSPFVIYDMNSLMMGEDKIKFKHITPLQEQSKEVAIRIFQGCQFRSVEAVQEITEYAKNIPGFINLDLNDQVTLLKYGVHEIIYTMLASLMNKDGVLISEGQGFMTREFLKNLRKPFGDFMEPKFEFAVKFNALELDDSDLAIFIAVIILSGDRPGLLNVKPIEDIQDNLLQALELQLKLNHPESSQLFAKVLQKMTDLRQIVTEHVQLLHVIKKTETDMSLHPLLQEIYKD
# procedure-text: PPARγ transactivation (GAL4 chimera luciferase gene activation) assay
# Format: cell-based
# reported-conditions: GAL4 DNA binding domain-PPARγ ligand binding domain chimera, pFR-Luc reporter, HEK293T cells, 20 hours incubation; read-out: Gene Activation Assay: EC50 PPAR gamma
pEC50: −log10 of the molar value.
property-name: pEC50

INSERT INTO measurements (molecule, assay_result) VALUES
  ('Cc1cc(SCc2nn(-c3ccc(C(F)(F)F)cc3)nc2C)ccc1OC(C)C(=O)O (centres unmarked) [Compound 110]', '≥ 5.00'),
  ('CCCc1cc(CC(=O)O)ccc1OCc1nn(-c2ccc(C(F)(F)F)cc2)nc1C [Compound 660]', '< 4.52'),
  ('Cc1cc(SCc2nn(-c3cccc(C(F)(F)F)c3)nc2C)ccc1OCC(=O)O [Compound 480]', '< 5.00'),
  ('Cc1cc(SCc2nn(-c3ccc(C(F)(F)F)cc3)nc2C)ccc1OCC(=O)O [Compound 100]', '< 4.52'),
  ('Cc1nn(-c2ccc(C(F)(F)F)cc2)nc1COc1ccc(CC(=O)O)cc1 [Compound 670]', '< 4.52'),
  ('Cc1cc(SCc2nn(-c3ccc(C(F)(F)F)cc3)nc2C(F)(F)F)ccc1OCC(=O)O [Compound 360]', '< 4.52'),
  ('Cc1cc(SCCc2nn(-c3ccc(C(F)(F)F)cc3)nc2C)ccc1OCC(=O)O [Compound 580]', '< 4.52'),
  ('Cc1cc(SCc2nn(-c3ccc(C(F)(F)F)cc3)nc2C(C)C)ccc1OCC(=O)O [Compound 320]', '< 4.52'),
  ('Cc1cc(SCc2nn(-c3ccc(Cl)c(Cl)c3)nc2C)ccc1OCC(=O)O [Compound 640]', '< 4.52'),
  ('COc1ccc(-n2nc(C)c(CSc3ccc(OCC(=O)O)c(C)c3)n2)cc1 [Compound 440]', '< 5.00'),
  ('Cc1cc(SCc2nn(-c3ccc(C(F)(F)F)cc3)nc2-c2ccccc2)ccc1OCC(=O)O [Compound 340]', '< 4.52');
